# Experimental target: Neurogenic locus notch homolog protein 3 (Homo sapiens) (UniProt Q9UM47)
# Sequence (Q9UM47 whole entry, looked up): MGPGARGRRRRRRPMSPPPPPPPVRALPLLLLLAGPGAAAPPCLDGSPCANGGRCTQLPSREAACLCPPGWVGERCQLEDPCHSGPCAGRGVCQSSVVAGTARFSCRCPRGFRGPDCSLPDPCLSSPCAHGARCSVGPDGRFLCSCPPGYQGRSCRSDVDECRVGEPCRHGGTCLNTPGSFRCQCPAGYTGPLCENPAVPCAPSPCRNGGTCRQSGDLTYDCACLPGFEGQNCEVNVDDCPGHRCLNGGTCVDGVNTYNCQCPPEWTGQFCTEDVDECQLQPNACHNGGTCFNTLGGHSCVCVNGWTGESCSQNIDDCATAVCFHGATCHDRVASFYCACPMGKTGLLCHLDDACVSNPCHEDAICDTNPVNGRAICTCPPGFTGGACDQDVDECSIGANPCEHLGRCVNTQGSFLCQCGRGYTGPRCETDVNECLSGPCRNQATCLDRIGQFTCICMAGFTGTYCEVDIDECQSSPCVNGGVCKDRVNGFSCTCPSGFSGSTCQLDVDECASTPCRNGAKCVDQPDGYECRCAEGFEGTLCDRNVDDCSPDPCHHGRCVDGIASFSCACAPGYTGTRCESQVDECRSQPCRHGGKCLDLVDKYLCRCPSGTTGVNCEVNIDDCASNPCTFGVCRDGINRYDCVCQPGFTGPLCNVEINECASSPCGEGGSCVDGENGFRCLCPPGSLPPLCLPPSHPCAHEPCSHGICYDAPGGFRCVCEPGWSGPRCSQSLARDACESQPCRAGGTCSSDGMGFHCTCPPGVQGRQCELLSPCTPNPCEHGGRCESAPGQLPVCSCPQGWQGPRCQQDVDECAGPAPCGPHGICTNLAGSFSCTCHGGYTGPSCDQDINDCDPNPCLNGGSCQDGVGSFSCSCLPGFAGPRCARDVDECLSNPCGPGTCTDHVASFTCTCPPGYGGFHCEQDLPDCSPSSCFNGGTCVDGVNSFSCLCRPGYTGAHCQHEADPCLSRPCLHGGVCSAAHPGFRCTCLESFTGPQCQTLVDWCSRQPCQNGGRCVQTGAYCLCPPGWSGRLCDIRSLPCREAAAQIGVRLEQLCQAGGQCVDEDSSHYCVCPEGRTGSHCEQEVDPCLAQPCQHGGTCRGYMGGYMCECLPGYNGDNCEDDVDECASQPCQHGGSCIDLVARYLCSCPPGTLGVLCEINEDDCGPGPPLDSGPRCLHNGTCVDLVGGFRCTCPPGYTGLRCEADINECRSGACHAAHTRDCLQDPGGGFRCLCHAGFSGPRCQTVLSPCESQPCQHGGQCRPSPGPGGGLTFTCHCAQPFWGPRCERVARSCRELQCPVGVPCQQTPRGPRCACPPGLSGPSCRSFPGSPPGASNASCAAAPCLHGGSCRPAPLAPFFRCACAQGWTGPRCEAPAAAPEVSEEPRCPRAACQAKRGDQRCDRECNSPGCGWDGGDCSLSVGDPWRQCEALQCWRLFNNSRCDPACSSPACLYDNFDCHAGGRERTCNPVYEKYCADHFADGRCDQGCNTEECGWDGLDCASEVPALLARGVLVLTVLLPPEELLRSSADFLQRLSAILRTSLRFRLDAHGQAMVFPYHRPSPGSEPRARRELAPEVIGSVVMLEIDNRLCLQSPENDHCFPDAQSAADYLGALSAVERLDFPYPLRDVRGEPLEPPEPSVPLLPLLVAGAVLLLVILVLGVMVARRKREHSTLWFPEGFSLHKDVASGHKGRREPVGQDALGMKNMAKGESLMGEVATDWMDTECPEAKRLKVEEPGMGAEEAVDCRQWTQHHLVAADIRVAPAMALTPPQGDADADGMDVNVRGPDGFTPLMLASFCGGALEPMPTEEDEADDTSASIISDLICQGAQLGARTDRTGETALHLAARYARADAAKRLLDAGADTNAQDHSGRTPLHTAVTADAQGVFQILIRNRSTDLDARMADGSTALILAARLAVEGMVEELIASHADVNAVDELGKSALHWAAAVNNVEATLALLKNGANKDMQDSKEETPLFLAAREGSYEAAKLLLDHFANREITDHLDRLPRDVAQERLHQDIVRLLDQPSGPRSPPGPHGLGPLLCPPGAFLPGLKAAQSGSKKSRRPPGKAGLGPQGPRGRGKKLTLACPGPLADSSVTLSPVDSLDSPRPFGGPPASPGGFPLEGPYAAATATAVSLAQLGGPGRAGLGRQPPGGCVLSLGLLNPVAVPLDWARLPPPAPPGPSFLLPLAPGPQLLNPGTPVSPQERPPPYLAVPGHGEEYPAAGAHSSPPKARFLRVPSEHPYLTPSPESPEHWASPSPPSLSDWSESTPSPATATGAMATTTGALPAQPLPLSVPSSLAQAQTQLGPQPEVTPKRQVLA
# Test details: NOTCH3 binders on small-molecule microarray, primary screen, biochemical, 635/667 nm fluorescence (AID 1096)
# Conditions: NOTCH3 binding, 635 nm fluorescence, higher = more signal
Observable: composite z-score
Lab note: write the figure by itself, no unit.

composite z-score for `Cc1ccc(S[C@]2(C(=O)NCC(C)C)CC(=O)N(Cc3ccccc3Cl)[C@@H]2c2ccc(CO)cc2)cc1` ?
-1.5

composite z-score for COC(=O)c1ccc(C23CC2(C(NP(=O)(c2ccccc2)c2ccccc2)c2ccccc2)C3)cc1 (configuration not stated) ?
1.07

composite z-score for CC(C)N1CC=CC23O[C@@H]4C=CCOC(=O)[C@@H]4[C@H]2C(=O)N(CCO)[C@@H]3C1=O (some centres not stated) ?
0.173

composite z-score for `COc1ccc([Si](C)(C)[C@H]2[C@H](CC(=O)N(CCO)Cc3ccccc3)O[C@@]3(C(=O)N(Cc4cccc(N5CCC5=O)c4)c4ccccc43)[C@@H]2C)cc1` ?
0.976

composite z-score for C=CCC(OC(C)=O)[C@@H]1[C@@H](N(Cc2cc3ccccc3o2)C(=O)c2ccc(C)cc2)c2cc(OCCCO)ccc2N1C(=O)c1ccc2ccccc2c1 (some centres not stated) ?
-0.0158

composite z-score for `O=C1C=CC(=O)[C@@H]2CC(COc3ccccc3)=C3[C@@H](CCc4ccccc4)OB(O)C[C@@H]3[C@H]12` ?
0.49

composite z-score for CC(c1ccccc1)C(O)C1C=CC2C(=O)NC(=O)C2N1Nc1ccccn1 (configuration not stated) ?
1.12

composite z-score for CS(=O)(=O)CCOC(=O)C1=CC(CCCO)=CC(c2cccs2)N(Cc2cc3c(cc2Br)OCO3)C=C1C(=O)OCCS(C)(=O)=O (configuration not stated) ?
1.06

composite z-score for `COC(=O)c1c(CC[C@@H](CO)NC(=O)N[C@@H](Cc2ccccc2)Cn2cc(C3(O)CCCCC3)nn2)oc(C(C)=O)c1C(=O)OC` ?
1.12

composite z-score for `COCCOC(=O)N1C(=O)[C@@]2(c3cc(C#CCNC(N)=O)ccc31)[C@H](C(=O)N1CCc3cc(OC)c(OC)cc3C1)[C@H]1C(=O)O[C@H](c3ccccc3)[C@H](c3ccccc3)N1[C@@H]2c1ccc(OCCO)cc1` ?
1.13

composite z-score for C=CCC(OC(C)=O)[C@@H]1[C@@H](N(Cc2ccc(-c3ccccc3)cc2)C(=O)Cc2ccc(F)cc2)c2cc(OCCCO)ccc2N1C(=O)c1ccc2ccccc2n1 (some centres not stated) ?
-0.0833

composite z-score for N#Cc1ccc(NN2C(C(O)C3CCCCC3)C=CC3C(=O)N(c4ccccc4)C(=O)C32)cc1 (configuration not stated) ?
1.03

composite z-score for C=CC(COC(C)=O)NS(=O)(=O)c1ccc(Br)cc1 (configuration not stated) ?
0.604

composite z-score for `O=C(CS)NCCCCCCNC(=O)[C@H]1C[C@H]2C(=O)N3CCC[C@H]3C(=O)N2[C@H]1c1cccc(OCCO)c1` ?
1.1

composite z-score for CC(C)(C)N1CC=CC23O[C@@H]4/C=C\CCCOC(=O)C4[C@H]2C(=O)N(CCO)[C@@H]3C1=O (some centres not stated) ?
-0.871

composite z-score for `COC(=O)[C@@]1(Cc2ccc(OC)cc2)[C@H]2c3cc(C(=O)N4CCCC4)n(Cc4cc(F)cc5c4OCOC5)c3C[C@H]2CN1C(=O)c1ccccc1` ?
0.77

composite z-score for CN1C(=O)C2C(C1=O)C1C=C(CCCO)C2C(c2cccs2)N1C (configuration not stated) ?
-0.553

composite z-score for `COCCOC(=O)N1C(=O)[C@@]2(c3cc(C#CC4=CCCCC4)ccc31)[C@H](C(=O)N1CCc3cc(OC)c(OC)cc3C1)[C@H]1C(=O)O[C@H](c3ccccc3)[C@H](c3ccccc3)N1[C@@H]2c1ccccc1OCCO` ?
1.09

composite z-score for `[N-]=[N+]=NCc1ccccc1C[C@]1(C(=O)O)N=C(c2ccc(OCCCO)cc2)O[C@H]1c1ccccc1CN=[N+]=[N-]` ?
0.759

composite z-score for `C=C[C@H](C)[C@@H](O)c1ccc(O)c2ccccc12` ?
-0.0004

composite z-score for `COc1ccc([Si](C)(C)[C@@H]2[C@@H](CCn3cc([C@H](O)c4ccccc4)nn3)O[C@]3(C(=O)N(Cc4ccc(N5C(=O)c6cccc7cccc5c67)cc4)c4ccccc43)[C@H]2C)cc1` ?
0.0481

composite z-score for COC(=O)C1=CC(CCCO)=CC(C2CC2)N(Cc2sc3ccccc3c2Cl)C=C1C(=O)OC (configuration not stated) ?
1.16

composite z-score for `C=CCOC(=O)[C@@H]1[C@H]2C(=O)O[C@H](c3ccccc3)[C@H](c3ccccc3)N2[C@H](c2ccc(OCCOC(=O)[C@@H]3C[C@@H]4C(=O)N[C@@H](Cc5ccccc5)C(=O)N4[C@@H]3c3cccc(OCCO)c3)cc2)[C@@]12C(=O)Nc1ccc(I)cc12` ?
0.974

composite z-score for `COCCOC(=O)N1C(=O)[C@@]2(c3cc(C#CCNC(N)=O)ccc31)[C@H](c1ccccc1OCCO)N1[C@H](c3ccccc3)[C@H](c3ccccc3)OC(=O)[C@H]1[C@@H]2C(N)=O` ?
1.09

composite z-score for COC(=O)c1ccc(C(O)C2C=CC3C(=O)N(C)C(=O)C3N2NC(=O)OC(C)(C)C)o1 (configuration not stated) ?
0.526

composite z-score for `O=C1O[C@@H](c2ccccc2)[C@@H](c2ccccc2)N2[C@@H](c3ccc(OCCO)cc3)[C@]3(C(=O)Nc4ccc(C#CC5=CCCCC5)cc43)[C@@H](C(=O)O)[C@H]12` ?
0.793

composite z-score for `CC(C)CNC(=O)[C@@]1(c2ccc([N+](=O)[O-])cc2)CC(=O)N(CC23CC4CC(CC(C4)C2)C3)[C@@H]1c1ccc(CO)cc1I` ?
1.09
